// values below are reported Binding recovery (>60%)
# system_under_test: T1, IL-10R1-Fc (UniProt Q13651 22-235, limits assumed)
# T1 sequence (looked up): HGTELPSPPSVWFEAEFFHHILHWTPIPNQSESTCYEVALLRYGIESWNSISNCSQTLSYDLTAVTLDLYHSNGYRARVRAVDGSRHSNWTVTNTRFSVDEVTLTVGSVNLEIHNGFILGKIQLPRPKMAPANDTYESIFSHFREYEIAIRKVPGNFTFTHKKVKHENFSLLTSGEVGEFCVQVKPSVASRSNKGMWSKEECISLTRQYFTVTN
# test_summary: ELISA, IL-10R1-Fc coated
Return type: number; implicit unit %.

Recorded Binding recovery (>60%), per entry:
IL-10 Asp25Cys-R4-12 (ligand, human, UniProt P22301 19-178, looked up, R4-12 on Cys 25, mature) SPGQGTQSENSCTHFPGNLPNMLRCLRDAFSRVKTFFQMKDQLDNLLLKESLLEDFKGYLGCQALSEMIQFYLEEVMPQAENQDPDIKAHVNSLGENLKTLRLRLRRCHRFLPCENKSKAVEQVKNAFNKLQEKGIYKAMSEFDIFINYIEAYMTMKIRN | 97.1
IL-10 Asp28Cys-R4-11 (ligand, human, UniProt P22301 19-178, looked up, R4-11 on Cys 28, mature) SPGQGTQSENSCTHFPGNLPNMLRDLRCAFSRVKTFFQMKDQLDNLLLKESLLEDFKGYLGCQALSEMIQFYLEEVMPQAENQDPDIKAHVNSLGENLKTLRLRLRRCHRFLPCENKSKAVEQVKNAFNKLQEKGIYKAMSEFDIFINYIEAYMTMKIRN | 92.3
IL-10 Gln42Cys-R4-19 (ligand, human, UniProt P22301 19-178, looked up, R4-19 on Cys 42, mature) SPGQGTQSENSCTHFPGNLPNMLRDLRDAFSRVKTFFQMKDCLDNLLLKESLLEDFKGYLGCQALSEMIQFYLEEVMPQAENQDPDIKAHVNSLGENLKTLRLRLRRCHRFLPCENKSKAVEQVKNAFNKLQEKGIYKAMSEFDIFINYIEAYMTMKIRN | 90

Fill blank: measured Binding recovery (>60%) of the binder IL-10 Leu19Cys-R4-7 (ligand, human, UniProt P22301 19-178, looked up, R4-7 on Cys 19, mature) SPGQGTQSENSCTHFPGNCPNMLRDLRDAFSRVKTFFQMKDQLDNLLLKESLLEDFKGYLGCQALSEMIQFYLEEVMPQAENQDPDIKAHVNSLGENLKTLRLRLRRCHRFLPCENKSKAVEQVKNAFNKLQEKGIYKAMSEFDIFINYIEAYMTMKIRN is ____.
95.3

Fill blank: measured Binding recovery (>60%) of the binder IL-10 Thr155Cys-R4-7 (ligand, human, UniProt P22301 19-178, looked up, R4-7 on Cys 155, mature) SPGQGTQSENSCTHFPGNLPNMLRDLRDAFSRVKTFFQMKDQLDNLLLKESLLEDFKGYLGCQALSEMIQFYLEEVMPQAENQDPDIKAHVNSLGENLKTLRLRLRRCHRFLPCENKSKAVEQVKNAFNKLQEKGIYKAMSEFDIFINYIEAYMCMKIRN is ____.
98.1

Fill blank: measured Binding recovery (>60%) of the binder IL-10 Phe143Cys-R4-8 (ligand, human, UniProt P22301 19-178, looked up, R4-8 on Cys 143, mature) SPGQGTQSENSCTHFPGNLPNMLRDLRDAFSRVKTFFQMKDQLDNLLLKESLLEDFKGYLGCQALSEMIQFYLEEVMPQAENQDPDIKAHVNSLGENLKTLRLRLRRCHRFLPCENKSKAVEQVKNAFNKLQEKGIYKAMSECDIFINYIEAYMTMKIRN is ____.
69

Fill blank: measured Binding recovery (>60%) of the binder IL-10 Asn21Cys-R4-18 (ligand, human, UniProt P22301 19-178, looked up, R4-18 on Cys 21, mature) SPGQGTQSENSCTHFPGNLPCMLRDLRDAFSRVKTFFQMKDQLDNLLLKESLLEDFKGYLGCQALSEMIQFYLEEVMPQAENQDPDIKAHVNSLGENLKTLRLRLRRCHRFLPCENKSKAVEQVKNAFNKLQEKGIYKAMSEFDIFINYIEAYMTMKIRN is ____.
99.7

All figures here come from patent US20230158141A1.
